Molecular target: mGAT1 (Mus musculus, UniProt P31648)
Construct: expressed in transfected cells; host or cells: HEK-293
Test: competitive MS binding assay with NO711 as unlabeled marker (LC-ESI-MS/MS)
Conditions: in the presence of 100 μM inhibitor
Reported remaining NO711 binding mGAT1 values for the following molecules.

{"columns": ["molecule", "remaining NO711 binding mGAT1"],
 "data": [
  ["CN(CCON=C(c1ccccc1)c1ccccc1)C(CCO)C(=O)NCc1ccccc1Cl (centres unmarked) [Compound 47b]", "100 μM: 86%"],
  ["CC(O)CC(C(=O)NCc1ccccc1)N1CCC(=C2c3ccccc3CCc3ccccc32)CC1 (centres unmarked) [2RS,4SR-43a]", "100 μM: 73%"],
  ["CN(CCC=C1c2ccccc2CCc2ccccc21)C(CO)C(=O)NCc1ccccc1Cl (centres unmarked) [Compound 56b]", "100 μM: 86%"],
  ["CCC(C(=O)NCc1ccccc1Cl)N(C)CCON=C(c1ccccc1)c1ccccc1 (centres unmarked) [Compound 66b]", "100 μM: 107%"],
  ["CC(O)CC(C(=O)NCc1ccccc1)N1CCC(=C2c3ccccc3CCc3ccccc32)CC1 (centres unmarked) [2RS,4RS-43a]", "100 μM: 77%"],
  ["CCOC(=O)[C@H](C)N(C)CCC=C1c2ccccc2C=Cc2ccccc21 [Compound 71]", "100 μM: 103%"],
  ["C[C@@H](C(=O)OCc1ccccc1)N(C)CCC=C1c2ccccc2C=Cc2ccccc21 [Compound 72]", "100 μM: 109%"],
  ["CC(O)CC(C(=O)NCc1ccccc1)N1CCC(=C2c3ccccc3-c3ccccc32)CC1 (centres unmarked) [2RS,4SR-41a]", "100 μM: 89%"]
]}
